Data provenance: paper PMC4462585

Listing of entries alongside the reported melting point.

Consider the following illustrative entries.
CCCc1cc(-c2ccc(OC)c(N)c2)n(-c2cc(OC)c(OC)c(OC)c2)n1 125 to 126 °C
CCCc1cc(-c2ccc(OC)c([N+](=O)[O-])c2)n(-c2cc(OC)c(OC)c(OC)c2)n1 149 to 150 °C
COc1ccc(-c2cc(C)nn2-c2cc(OC)c(OC)c(OC)c2)cc1F 86 to 87 °C
COc1cc(-c2cc(C)nn2-c2ccc(C)cc2)cc(OC)c1OC 70 to 71 °C

Looking for the measured melting point of `COc1ccc(-c2cc(C)nn2-c2cc(OC)c(OC)c(OC)c2)cc1[N+](=O)[O-]` , can you help? 145 to 146 °C

Looking for the measured melting point of `COc1ccc(-n2nc(C)cc2-c2cc(OC)c(OC)c(OC)c2)cc1` , can you help? 67 to 68 °C

Looking for the measured melting point of `C=CCOc1ccc(-c2cc(C)nn2-c2cc(OC)c(OC)c(OC)c2)cc1OC` , can you help? 78 to 79 °C

Looking for the measured melting point of `COc1ccc(-c2c(CO)c(C)nn2-c2cc(OC)c(OC)c(OC)c2)cc1O` , can you help? 166 to 167 °C
